The compounds listed here are annotated with their melting point.

Worked cases, melting point given:
- COMPOUND: "CC(S)C(=O)NCc1noc(C(C)c2ccc(-c3ccccc3)c(F)c2)n1 (stereo not given)"
  ASSAY VALUE: "94 to 95 °C"
- COMPOUND: "C/C=C/c1ccc2c(NCc3ccc(NC(=O)c4ccc(F)cc4)cc3)nc(N(C)C)nc2c1"
  ASSAY VALUE: "246 °C"

Given Cc1nc2c(s1)-c1nc(Nc3ccc(Cl)nc3)ncc1CC2 , respond with its melting point.
252 to 253 °C

Given CN1CCN(CC(=O)N2c3ccccc3N(C)S(=O)(=O)c3ccccc32)CC1 , respond with its melting point.
143 to 144 °C

Given COc1ccc(C2Sc3c(ccc4ccccc34)N(CCN(C)C)C(=O)C2OC(=O)c2ccccc2O)cc1 (stereo not given) , respond with its melting point.
150 to 151 °C

Given NS(=O)(=O)c1ccc(NC(=O)c2cc(F)ccc2SSc2ccc(F)cc2C(=O)Nc2ccc(S(N)(=O)=O)cc2)cc1 , respond with its melting point.
> 300 °C

Given COc1ccn2nc(-c3ccccc3)c(-c3ccc(=O)n(C4CCCN(C)C4)n3)c2c1 (stereo not given) , respond with its melting point.
179 to 180 °C

Given O=C1c2cc(O)ccc2CC1Cc1ccccc1 (stereo not given) , respond with its melting point.
140 to 143 °C

Given CCc1cc(-c2cc(N)n3nc(-c4ccco4)nc3c2)ccn1 , respond with its melting point.
184 to 186 °C

Given OCCC(c1ccccc1)C(O)(c1ccccc1)c1ccc(O)cc1 (stereo not given) , respond with its melting point.
192 to 194 °C

Given Clc1ccc(Oc2cncc3sccc23)cc1 , respond with its melting point.
87 to 89 °C

Given Cc1nnc2n1-c1sc(C#Cc3ccccc3)cc1C(c1ccccc1Cl)=NC2 , respond with its melting point.
215 to 217 °C

###

READOUT TYPE: melting point

Worked cases, melting point given:
- COMPOUND: "COc1ccc(C=CC2=NNC(C)Cc3cc4c(cc32)OCO4)c(OC)c1 (stereo not given)"
  melting point: "176 to 178 °C"
- COMPOUND: "Cc1ccc(OCC(O)CNC(C)C)nc1 (stereo not given)"
  melting point: "62 to 67 °C"
- COMPOUND: "CC(C)c1cc(Cl)cc(C(C)C)c1NC(=O)NS(=O)(=O)c1cccc(C2(C)OCCO2)c1"
  melting point: "155 to 157 °C"
- COMPOUND: "CCOC(=O)c1cc(=O)c2ccc(C)cc2o1"
  melting point: "62 to 64 °C"
- COMPOUND: "COC(=O)c1cc(Br)c2c(c1Cl)OC(c1ccccc1)(c1ccccc1)O2"
  melting point: "137 to 138 °C"
- COMPOUND: "Cn1c(C(=O)O)ccc1C(=O)c1ccccc1"
  melting point: "178 to 181 °C"
- COMPOUND: "N=C(NS(=O)(=O)C=Cc1ccc([N+](=O)[O-])cc1)c1ccc2ccccc2c1"
  melting point: "180 to 182 °C"
- COMPOUND: "Cc1noc(NS(=O)(=O)c2ccc(NC(=O)c3ccccc3)cc2-c2ccc(CC(C)C)cc2)c1C"
  melting point: "207 to 211 °C"
- COMPOUND: "Cc1oc(-c2ccccc2)nc1CCOc1ccc(C[C@@H](C(=O)O)N2CCN(S(=O)(=O)c3ccccc3[N+](=O)[O-])CC2)cc1"
  melting point: "171 to 173 °C"

Given O=[N+]([O-])c1cnc2cc(Cl)ccc2c1Cl , respond with its melting point.
165 to 167 °C

###

The molecules listed here are annotated with their melting point.

- SMILES STRUCTURE: "O=C(CBr)c1ccc2nnnn2c1"
  ASSAY VALUE: "108 to 110 °C"
- SMILES STRUCTURE: "NC(=O)c1cccc(-c2cccc3sc(Cc4ccc(F)c(F)c4)cc23)c1"
  ASSAY VALUE: "189 to 190 °C"

Given Cc1c(-c2ccncc2)[nH]c(-c2ccncc2)c1C(=O)CC(C)C , respond with its melting point.
199 to 201 °C

Given NC(=O)c1cn(C2CCCC2)nc1N , respond with its melting point.
179 to 181 °C

Given Cc1cccc(I)c1C(=O)Nc1ccccc1[N+](=O)[O-] , respond with its melting point.
115 °C

Given CCCCCCCN=C1SC(=CC(=O)O)C(=O)N1CCCCCCC , respond with its melting point.
80 to 81 °C

###

The compounds listed here are annotated with their melting point.

- COMPOUND: "CCOC(=O)[C@H](CC(C)C)SC[C@H](O)[C@H](CC1CCCCC1)NC(=O)[C@H](Cc1c[nH]cn1)NC(=O)[C@H](Cc1ccccc1)NC(=O)OC(C)(C)C"
  melting point: "> 82 °C"

Now turn to the next compound.
Given Cc1cc(C#N)cc(C)c1Oc1cc(Cl)nc(Cl)n1 , respond with its melting point.
208 to 210 °C

###

The compounds listed here are annotated with their melting point.

Worked cases, melting point given:
- SMILES STRUCTURE: "CC(C)(C)c1cccc(S(=O)(=O)n2c(Cc3ccc(-c4n[nH]c(=O)o4)cc3)cc3cc(C(F)(F)F)ccc32)c1"
  melting point: "92 °C"
- SMILES STRUCTURE: "CC(C)n1c(CC[C@@H](O)C[C@@H](O)CC(=O)OC(C)(C)C)c(-c2ccc(F)cc2)c(-c2ccccc2)c1C(N)=O"
  melting point: "94 to 96 °C"
- SMILES STRUCTURE: "C=C(c1nc2ccccc2s1)C1CCN(CCc2ccc(OC)cc2)CC1"
  melting point: "84 to 85 °C"

Now turn to the next compound.
Given CCc1[nH]n(-c2c(Cl)cc(Cl)cc2Cl)c2nc(Cc3cccc(OC)c3)nc(=O)c1-2 , respond with its melting point.
235 to 238 °C

###

READOUT TYPE: melting point

Worked cases, melting point given:
- COMPOUND: "CN(C(=O)c1cc2c(cn1)[nH]c1ccccc12)c1ccccc1"
  melting point: "237 to 240 °C"
- COMPOUND: "COc1cc2c(cc1C(O)COc1ccc(C(=O)O)c(O)c1)C(C)(C)CCC2(C)C (stereo not given)"
  melting point: "178 to 179 °C"
- COMPOUND: "Cc1ccc2c(c1)C1(COc3cc4c(cc31)OCO4)C(=O)N2 (stereo not given)"
  melting point: "269 to 271 °C"
- COMPOUND: "O=C(O)CCCCCCCCC1CO1 (stereo not given)"
  melting point: "48 °C"

Given CC(=O)c1ccc(Oc2ccc([N+](=O)[O-])cc2C#N)cc1 , respond with its melting point.
135 to 136 °C

Given COc1cc2c(cc1OC)Sc1ccccc1C(Cl)C2 (stereo not given) , respond with its melting point.
155 to 160 °C

Given CC(=O)Nc1ccc(I)cc1F , respond with its melting point.
152 to 154 °C

Given CC1CC(=O)NN=C1c1ccc(N2CCN(CCCCN)CC2)c([N+](=O)[O-])c1 (stereo not given) , respond with its melting point.
145 to 146 °C

Given COc1ccc(N2CCN(c3c(C)c(C)c4c(c3C)OC(C)(C)C4c3ccc(C)cc3)CC2)cc1 (stereo not given) , respond with its melting point.
160 to 162 °C

Given CCCCCCCCCCCCC1=CC(=O)c2c(Cl)cccc2C1=O , respond with its melting point.
57.5 to 58.5 °C

###

The compounds listed here are annotated with their melting point.

- COMPOUND: "CC(C)n1cc(-c2ccccc2)c(=O)c(-c2ccccc2)c1"
  READOUT TYPE: "melting point"
  ASSAY VALUE: "152 °C"

Now turn to the next compound.
Given O=C(O)Cc1cc(Br)ccc1OCCCc1ccccc1 , respond with its melting point.
79.5 to 81 °C

###

The compounds listed here are annotated with their melting point.

Worked cases, melting point given:
- COMPOUND: "C[C@H]([C@](O)(Cn1cncn1)c1ccc(F)cc1F)S(=O)(=O)CC(N)=O"
  melting point: "184 to 185 °C"
- COMPOUND: "CS(=O)(=O)Nc1ccc(C(CC2CCCC2)C(=O)Nc2nccs2)cc1 (stereo unspecified)"
  melting point: "85 to 90 °C"
- COMPOUND: "Cc1ccc2c(=O)cc(C(N)=O)oc2c1"
  melting point: "> 300 °C"
- COMPOUND: "N#Cc1ccc(C2NC(=O)Cc3ccccc32)cc1 (stereo unspecified)"
  melting point: "165 to 168 °C"
- COMPOUND: "CC(Cc1ccc(C(=O)OCOC(=O)C(C)(C)C)cc1)NCC(O)c1ccc(O)c(CO)c1 (stereo unspecified)"
  melting point: "55 to 57 °C"
- COMPOUND: "O=c1[nH]c2ccccc2n1CC1CCN(CC(O)COc2ccc(Cl)cc2)C1 (stereo unspecified)"
  melting point: "129 °C"
- COMPOUND: "NC(=O)c1cc2ncccc2n1-c1ccc([N+](=O)[O-])cc1"
  melting point: "> 260 °C"
- COMPOUND: "COC(=O)c1ccc(OCC=O)cc1"
  melting point: "58 to 60 °C"
- COMPOUND: "COc1ccc(NN=C(Sc2cc(C)cc(C)c2)C(C)=O)cc1"
  melting point: "165 to 167 °C"
- COMPOUND: "Brn1nnc2c3scnc3ccc21"
  melting point: "282 to 285 °C"

Given O=C=Nc1cc(Cl)c(Br)cc1CBr , respond with its melting point.
48 to 50 °C
